- System: reagin-mediated rat Passive Cutaneous Anaphylaxis (PCA)
- EXPERIMENTAL_PROTOCOL: reagin-mediated rat Passive Cutaneous Anaphylaxis (PCA) screening test
- Format: in vivo, rat (Sprague-Dawley)
- ASSAY_CONTEXT: po, Table II, p.o., 10 minutes prior to antigen challenge, acids solubilized in aqueous sodium bicarbonate, read-out: ID50 (dose of compound that inhibits 50% of the response), 5-carboxylic acids, p.o.
MEASUREMENT_KIND: ED50

// below: answered compounds
[
  {
    "COMPOUND": "CCOc1ccc(N)cc1-c1ncc(C(=O)O)c(=O)[nH]1 [Example 24F]",
    "ED50": "0.9 mg/kg"
  },
  {
    "COMPOUND": "CCOc1ccc(Cl)cc1-c1ncc(C(=O)O)c(=O)[nH]1 [Example 24E]",
    "ED50": "0.5 mg/kg"
  },
  {
    "COMPOUND": "CC(C)COc1ccccc1-c1ncc(C(=O)O)c(=O)[nH]1 [Example 24C]",
    "ED50": "0.5 mg/kg"
  },
  {
    "COMPOUND": "CCCOc1ccc(OC)cc1-c1ncc(C(=O)O)c(=O)[nH]1 [Example 27]",
    "ED50": "0.3 mg/kg"
  },
  {
    "COMPOUND": "COc1ccc(OC)c(-c2ncc(C(=O)O)c(=O)[nH]2)c1 [Example 24D]",
    "ED50": "1 mg/kg"
  },
  {
    "COMPOUND": "CCCOc1ccccc1-c1ncc(C(=O)O)c(=O)[nH]1 [Example 21]",
    "ED50": "0.9 mg/kg"
  }
]

Reported ED50 ( O=C(O)c1cnc(-c2ccccc2OCC2CC2)[nH]c1=O [Example 25] ) = ~0.1 mg/kg

Reported ED50 ( CCOc1ccccc1-c1ncc(C(=O)O)c(=O)[nH]1 [Example 20] ) = 0.5 mg/kg

Reported ED50 ( CCOc1ccc(N(C)C)cc1-c1ncc(C(=O)O)c(=O)[nH]1 [Example 26] ) = 0.3 mg/kg

Reported ED50 ( CC(C)Oc1ccccc1-c1ncc(C(=O)O)c(=O)[nH]1 [Example 22] ) = 0.8 mg/kg

Reported ED50 ( CCOc1ccc(OC)cc1-c1ncc(C(=O)O)c(=O)[nH]1 [Example 24G] ) = 0.2 mg/kg

Reported ED50 ( C=CCOc1ccccc1-c1ncc(C(=O)O)c(=O)[nH]1 [Example 24A] ) = 0.5 mg/kg

Reported ED50 ( O=C(O)c1cc(=O)c2c(OCC(O)COc3cccc4oc(C(=O)O)cc(=O)c34)cccc2o1 [DSCG, Disodium cromoglycate, reference compound] ) = > 30 mg/kg

Reported ED50 ( CCCCOc1ccccc1-c1ncc(C(=O)O)c(=O)[nH]1 [Example 23] ) = 0.5 mg/kg

Reported ED50 ( CCC(C)Oc1ccccc1-c1ncc(C(=O)O)c(=O)[nH]1 (racemic) [Example 24B] ) = 0.5 mg/kg
